test: chemical genetic growth profiling, strain panel (AID 1159580);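 further: tested at 20 µM; growth read once vehicle control cultures reached saturation at 30 °C; 1 = growth at the plate median or of vehicle wells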; details: S. cerevisiae deletion strains, growth OD, locus YLR113W, strain HOG1
The campaign covered roughly 5,500 compounds. About 2,000 (36%) were called active. About 18% were inconclusive and are not listed. No stated cut-off is given here; in the data, active means normalized growth mostly below about 0.91 (no sharp cut-off); inconclusive means no clear call, values can overlap the other calls; inactive means mostly above about 0.92. The list shows a part of the results.
Give one outcome, nothing more. List: True = active, False = inactive

- compound smiles: "COC1=C(OC)C(=O)C(CCCCCCCCCCO)=C(C)C1=O"
  label class: "False"
- compound smiles: "C=C[C@H]1CN2CC[C@H]1C[C@H]2[C@H](O)c1ccnc2ccccc12"
  label class: "False"
- compound smiles: "O=C(Nc1cc(Cl)cc(Cl)c1)c1cc(Br)ccc1O"
  label class: "False"
- compound smiles: "O=C(Nc1ccc([N+](=O)[O-])cc1Cl)c1cc(Cl)ccc1O"
  label class: "False"
- compound smiles: "O=C(Nc1ccc(F)cc1)c1cc(Br)ccc1O"
  label class: "True"

*Q* So what was the verdict on `CC(=O)Nc1c(I)cc(I)c(C(=O)O)c1I` in this test?
*A* False

*Q* Hi, do you know how `COC(=O)c1cc(I)c(OC(C)=O)c(I)c1` came out in this test?
*A* True

*Q* What was the test verdict on `O=C1NS(=O)(=O)c2ccccc21` ?
*A* False

*Q* Any idea what this test logged for `O[C@H]1[C@H](O)[C@@H](O)C2OC[C@H]1O2` ?
*A* False

*Q* # lookup: test call for `CCCc1ncc(C[n+]2ccccc2C)c(N)n1`
*A* False

*Q* Outcome logged for `O=C1c2ccccc2C(=O)C1(O)C1(O)C(=O)c2ccccc2C1=O` in this assay:
*A* False

*Q* Hey, what did the test say about `O=C1C=CC(=O)c2ccccc21` ?
*A* True

---

assay: chemical genetic growth profiling, strain panel (AID 1159580);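 further: tested at 20 µM; growth read once vehicle control cultures reached saturation at 30 °C; 1 = growth at the plate median or of vehicle wells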; conditions: S. cerevisiae deletion strains, growth OD, locus YLR330W, strain CHS5, stronger effect = lower value
The whole screen tested about 5,500 compounds, of which about 2,000 (36%) were called active. Inconclusive results (about 18%) are left out. The list shows a part of the results.
recorded endpoint: normalized growth

Please review the entries below; each comes with its answer.
- compound smiles: "CCCN(CCC)c1c([N+](=O)[O-])cc(C(F)(F)F)cc1[N+](=O)[O-]"
  normalized growth: "1.02 (inactive)"
- compound smiles: "CN1CCC[C@H]1c1cccnc1"
  normalized growth: "0.987 (inactive)"
- compound smiles: "CCCCN(CC)c1c([N+](=O)[O-])cc(C(F)(F)F)cc1[N+](=O)[O-]"
  normalized growth: "1.01 (inactive)"

*Q* Please look at this compound and report its normalized growth: `COc1ccc(NS(=O)(=O)c2ccc(N)cc2)nn1`
*A* 1.01 (inactive)

*Q* Tell us which normalized growth value is on record for `CC(C)[C@@H]1CC[C@@H](C)CC1=O`
*A* 1.01 (inactive)

*Q* Note normalized growth for the compound shown: `CCCc1ncc(C[n+]2ccccc2C)c(N)n1`
*A* 1.01 (inactive)

---

assay: chemical genetic growth profiling, strain panel (AID 1159580);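 further: tested at 20 µM; growth read once vehicle control cultures reached saturation at 30 °C; 1 = growth at the plate median or of vehicle wells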; settings: S. cerevisiae deletion strains, growth OD, locus YFR019W, strain FAB1, stronger effect = lower value
Among all 5,500 compounds or so, about 2,000 (36%) were called active. Not shown: some 18% with an inconclusive outcome. The list shows a part of the results.
recorded endpoint: normalized growth
Respond with the number and no other words.

Examples with answers:
- molecule: "Cc1cc2nc3c(Cl)c(O)c4ccccc4c3nc2cc1C"
  normalized growth: 0.887
- molecule: "Cc1csc2ncnc(N3CCN(C(=O)Nc4ccc(SC(F)(F)F)cc4)CC3)c12"
  normalized growth: 0.918
- molecule: "Cc1cc(C)c2cc(C(=O)NCCNc3ccc(C(F)(F)F)cn3)[nH]c2c1"
  normalized growth: 0.322
- molecule: "Cc1csc2c(N3CCN(C(=S)Nc4ccc(C(F)(F)F)cc4)CC3)ncnc12"
  normalized growth: 0.965
- molecule: "CC(=O)c1ccc(Sc2ccccc2)c([N+](=O)[O-])c1"
  normalized growth: 0.88
- molecule: "COc1cc(C2CC(=S)Nc3ccccc3S2)cc(OC)c1OC (stereo not given)"
  normalized growth: 0.945

*Q* // fetch normalized growth given entry `CCOC(=O)c1ccc(N=Cc2cc(Cl)cc(Cl)c2O)cc1`
*A* 0.153

*Q* Supply reported normalized growth belonging to this molecule: `CC(C)(C)c1ccc(-c2cc(NC(=O)c3ccc(Cl)cc3)n[nH]2)cc1`
*A* 1.01

*Q* Note normalized growth for the molecule shown: `O=[N+]([O-])c1ccc(Sc2ccccc2)cc1O`
*A* 0.895

*Q* Please give measured normalized growth of the following entry: `Cc1cc(N=Cc2cc(Cl)cc(Cl)c2O)no1`
*A* 0.517

*Q* Retrieve normalized growth measured for `CCOC(=O)c1cnc(-c2ccccn2)[nH]c1=O` and print it.
*A* 0.819

*Q* Quick one: give measured normalized growth for `Cn1ncc(-c2nc(-c3ccc(Cl)cc3)cs2)c1N`
*A* 0.95

*Q* Hello, please tell me recorded normalized growth for this one: `O=C(Nc1cc(Cl)cc(Cl)c1)c1cc(Cl)ccc1O`
*A* 0.83

*Q* In one line, give reported normalized growth of the entry `Cc1oc(C(C)(C)C)cc1-c1cc(NC(=O)c2ccccc2)n[nH]1` .
*A* 0.921

*Q* Annotate the molecule `Cc1csc2ncnc(N3CCN(C(=S)Nc4ccc(C(F)(F)F)cc4)CC3)c12` with its measured normalized growth.
*A* 0.958
